Biological target: T1, human B7RP1-Fc fusion protein (human, UniProt O75144 19-256, limits assumed)
T1 sequence (looked up): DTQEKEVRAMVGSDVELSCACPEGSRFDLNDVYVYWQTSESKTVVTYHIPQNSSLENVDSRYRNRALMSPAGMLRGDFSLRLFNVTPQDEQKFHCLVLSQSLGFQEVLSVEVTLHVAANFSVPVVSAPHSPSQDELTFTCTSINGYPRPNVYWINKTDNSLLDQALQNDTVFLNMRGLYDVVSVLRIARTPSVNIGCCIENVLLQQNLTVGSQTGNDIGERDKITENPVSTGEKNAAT
Assay: cell-based or functional assay
Output TRUE for Plate (co-stimulation assay, T cell proliferation) EC50 not less than 50 pM; output FALSE otherwise.

binder="anti-B7RP1 human monoclonal antibody 41H (antibody, V domains shown) VH: EVQLVESGGGLVQPGGSLRLSCAASGFTFSSYWMSWVRQAPGKGLEWVAYIKQDGSEKYYVDSVKGRFTISRDNAKNSLYLQMNSLRAEDTAVYYCARDGILWFGDLPTYWGQGTLVTVSS VL: DIQMTQSPSSLSASVGDRVTITCRASQGISSWLAWYQQKPEKAPKSLIYAASSLQSGVPSRFSGSGSGTDFTLTISSLQPEDFATYYCQQYNTYPRTFGQGTKVEIK" classification=TRUE
binder="anti-B7RP1 human monoclonal antibody 2H (antibody, V domains shown) VH: EVQLVESGGGLVQPGGSLRLSCVGSGFTFSSYWMSWVRQAPGKGLEWVAYIKQDGSEKYYVDSVKGRFTISRDNAKNSLYLQMNSLRAEDTAVYYCARDGILWFGDIPTYWGQGILVTVSS VL: DIQMTQSPSSLSASVGDRVTITCRASQGISNWLAWYQQKPEKAPKSLIYTASSLQSGVPSRFSGSGSGTDFTLTISSLQPEDFATYYCQQYNSYPRTFGQGTKVEIK" classification=FALSE
binder="anti-B7RP1 human monoclonal antibody 5D (antibody, V domains shown, Fluorescently labelled in the flow cytometry assays; also called 5D mAb; B7RP-1 5D) VH: QVQLVESGGGVVQPGRSLRLSCAASGFTFSSYGMHWVRQAPGKGLEWVAVIWYDGSKKYYADSVEGRFTISRDNSKNTLYLQMNSLRAEDTAVFYCARDLNIMVWGIFDYWGQGTLVTVSS VL: EIVLTQSPATLSLSPGERATLSCRASQSVSSYLAWYQQKPGQAPRLLIYDASNRATGIPARFSGSGSGTDFTLTISSLEPEDFAVYYCQQRNNWPWTFGQGTKVEIK" classification=TRUE
binder="anti-B7RP1 human monoclonal antibody 16H germline (antibody, V domains shown) VH: EVQLVESGGGLVQPGGSLRLSCAASGFTFSSYWMSWVRQAPGKGLEWVAYIKQDGNEKYYVDSVKGRFTISRDNAKNSLYLQMNSLRAEDTAVYYCAREGILWFGDLPTFWGQGTLVTVSS VL: DIQMTQSPSSLSASVGDRVTITCRASQGISNWLAWYQQKPEKAPKSLIYAASSLQSGVPSRFSGSGSGTDFTLTISSLQPEDFATYYCQQYDSYPRTFGQGTKVEIK" classification=FALSE
binder="anti-B7RP1 human monoclonal antibody 16H (antibody, V domains shown, Fluorescently labelled in the flow cytometry assays; also called 16H mAb; B7RP-1 16H) VH: EVQLVESGGGLVQPGGSLRLSCAGSGFTFSSYWMSWVRQAPGKGLEWVAYIKQDGNEKYYVDSVKGRFTISRDNAKKSLYLQMNSLRAEDTAVYYCAREGILWFGDLPTFWGQGILVTVSS VL: DIQMTQSPSSLSASVGDRVTITCRASQGISNWLAWYQQKPEKAPKSLIYAASSLQSGVPSRFSGSGSGTDFTLTISSLQPEDFATYYCQQYDSYPRTFGQGTKVEIK" classification=TRUE
binder="anti-B7RP1 human monoclonal antibody 43H (antibody, V domains shown) VH: EVQLVQSGGGLVHPGGSLRLSCAGSGFTFSSYAMHWVRQAPGKGLEWVSAIGAGGGTYYADSVKGRFTISRDNAKNSLYLQMNSLRAEDMAVYYCARVVVVVGFFDYWGQGTLVTVSS VL: DIQMTQSPSSLSASVGDRVTITCRASQGISSWLAWYQQKPEKAPKSLIFAASSLQSGVPSRFSGSGSGTDFTLTISSLQPEDFATYYCQQYNSYPYTFGQGTKLEIK" classification=FALSE

Taken from patent US20080166352A1.
